# Method: Mouse blood levels after subcutaneous injection
# Format: in vivo
# Condition Parameters: in vivo, sc, 20 mg/kg
Property Name: concentration at 0.5 h (ng/mL)
Write down the numeric answer in ng/mL and omit the unit.

So for NC(=O)OCC1=C(C(=O)O)N2C(=O)C(NC(=O)[C@H](NC(=O)c3cnc4cccnc4c3O)c3ccccc3)[C@H]2SC1 (stereo partly shown) , the logged concentration at 0.5 h turned out to be 9000

====

Exercise: state measured MIC for each of the compounds provided.
# System: Pseudomonas aeruginosa
# Method: MIC by agar dilution against 61 strains of Pseudomonas aeruginosa, secondary evaluation
# Format: cell-based
# Condition Parameters: Pseudomonas aeruginosa, BBRI Pa-No. 38, Table 7; read-out: MIC
The figure you give is taken to be in µg/mL; do not add the unit.

Quick note, MIC for NC(=O)OCC1=C(C(=O)O)N2C(=O)C(NC(=O)[C@H](NC(=O)c3cnc4cccnc4c3O)c3ccc(O)cc3)C2SC1 (single isomer, unassigned) landed at 3.1

Value of MIC reported for the compound CCN1CCN(C(=O)NC(C(=O)N[C@@H]2C(=O)N3[C@@H]2SC(C)(C)[C@@H]3C(=O)O)c2ccccc2)C(=O)C1=O (stereo partly shown) is 6.3

Reported MIC of CC1(C)S[C@@H]2[C@H](NC(=O)C(c3ccccc3)S(=O)(=O)O)C(=O)N2[C@H]1C(=O)O (stereo partly shown) : 100

# compound NC(=O)OCC1=C(C(=O)O)N2C(=O)C(NC(=O)[C@H](NC(=O)c3cnc4cccnc4c3O)c3ccccc3)[C@H]2SC1 (stereo partly shown) ; its MIC = 6.3

====

# System: Pseudomonas aeruginosa
# Method: MIC by agar dilution against 61 strains of Pseudomonas aeruginosa, secondary evaluation
# Type: cell-based
# Condition Parameters: Pseudomonas aeruginosa, BBRI Pa-No. 30, Table 7; read-out: MIC
Consider the following molecules; for each one, report its MIC.
Value expressed in µg/mL; do not type the unit.

// molecule CCN1CCN(C(=O)NC(C(=O)N[C@@H]2C(=O)N3[C@@H]2SC(C)(C)[C@@H]3C(=O)O)c2ccccc2)C(=O)C1=O (stereo partly shown) , assay Pseudomonas aeruginosa, MIC value: 6.3

MIC on Pseudomonas aeruginosa for NC(=O)OCC1=C(C(=O)O)N2C(=O)C(NC(=O)[C@H](NC(=O)c3cnc4cccnc4c3O)c3ccc(O)cc3)C2SC1 (single isomer, unassigned) is 0.8

Item CC1(C)S[C@@H]2[C@H](NC(=O)C(c3ccccc3)S(=O)(=O)O)C(=O)N2[C@H]1C(=O)O (stereo partly shown) was tested on Pseudomonas aeruginosa; the reported MIC is 25

Test item NC(=O)OCC1=C(C(=O)O)N2C(=O)C(NC(=O)[C@H](NC(=O)c3cnc4cccnc4c3O)c3ccccc3)[C@H]2SC1 (stereo partly shown) ; Pseudomonas aeruginosa; reported MIC was 1.6

====

# Tested on: Pseudomonas aeruginosa
# Method: MIC by agar dilution against 61 strains of Pseudomonas aeruginosa, secondary evaluation
# Assay type: cell-based
# Condition Parameters: Pseudomonas aeruginosa, BBRI Pa-No. 41, Table 7; read-out: MIC
Please go through the items and note down their MIC.
API: value field is a number in µg/mL; no unit string.

Noted for NC(=O)OCC1=C(C(=O)O)N2C(=O)C(NC(=O)[C@H](NC(=O)c3cnc4cccnc4c3O)c3ccc(O)cc3)C2SC1 (single isomer, unassigned) : its MIC reads 1.6

Notebook: CCN1CCN(C(=O)NC(C(=O)N[C@@H]2C(=O)N3[C@@H]2SC(C)(C)[C@@H]3C(=O)O)c2ccccc2)C(=O)C1=O (stereo partly shown) , MIC read as 3.1

Note to self: MIC recorded for CC1(C)S[C@@H]2[C@H](NC(=O)C(c3ccccc3)S(=O)(=O)O)C(=O)N2[C@H]1C(=O)O (stereo partly shown) was 25

The compound listed as NC(=O)OCC1=C(C(=O)O)N2C(=O)C(NC(=O)[C@H](NC(=O)c3cnc4cccnc4c3O)c3ccccc3)[C@H]2SC1 (stereo partly shown) has a reported MIC of 3.1
